molecular target: Cyclin-dependent kinase 4/cyclin D1 (Homo sapiens); test: Inhibition of human recombinant CDK4/Cyclin D1 using fluoresceinyl-Ahx-Pro-Val-Lys-Arg-Arg-Leu-(3ClPhe)-Gly tracer peptide as substrate after 45 mins by fluorescent polarization binding assay
Sequence (P11802 whole entry): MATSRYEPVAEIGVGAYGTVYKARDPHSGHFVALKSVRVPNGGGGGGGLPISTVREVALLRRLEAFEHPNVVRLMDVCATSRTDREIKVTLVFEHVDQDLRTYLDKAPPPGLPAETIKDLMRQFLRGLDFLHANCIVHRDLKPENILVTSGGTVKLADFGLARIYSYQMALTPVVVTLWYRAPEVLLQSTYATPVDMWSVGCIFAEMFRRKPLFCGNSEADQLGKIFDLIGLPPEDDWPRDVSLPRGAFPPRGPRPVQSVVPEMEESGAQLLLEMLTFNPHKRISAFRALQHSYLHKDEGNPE
Sequence (P24385 whole entry, further chain): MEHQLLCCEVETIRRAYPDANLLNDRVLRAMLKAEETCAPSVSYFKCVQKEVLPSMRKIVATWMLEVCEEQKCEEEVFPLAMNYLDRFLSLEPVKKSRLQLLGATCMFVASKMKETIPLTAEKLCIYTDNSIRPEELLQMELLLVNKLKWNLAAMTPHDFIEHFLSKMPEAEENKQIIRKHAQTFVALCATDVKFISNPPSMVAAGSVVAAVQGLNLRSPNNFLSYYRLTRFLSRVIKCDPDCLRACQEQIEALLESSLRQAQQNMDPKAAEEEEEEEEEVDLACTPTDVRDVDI
pIC50: −log10 of the molar value. Peptide text beside a SMILES is read from it. * marks the point of attachment. X18 = O=C(c1ccc(-c2cc(Cl)cc(Cl)c2)o1)*; X9 = O=C(c1ccn(-c2cc(Cl)cc(Cl)c2)c1)*; X13 = O=C(c1c[nH]c(-c2cccc(F)c2)n1)*; X15 = O=C(c1ccn(-c2ccc(Cl)cc2)c1)*; X6 = COc1cccc(-n2nc(C(=O)*)cc2C)c1; X4 = O=C(c1ccc(-c2cccc(Cl)c2)o1)*; X5 = O=C(c1csc(-c2ccc(Cl)cc2)n1)*; X7 = Cc1cc(C(=O)*)nn1-c1cccc(F)c1
READOUT NAME: pIC50

CC[C@H](C)[C@H](NC(=O)[C@H](CC(C)C)NC(=O)[C@H](CCCNC(=N)N)NC(=O)c1csc(-c2ccc(Cl)cc2)n1)C(=O)N[C@@H](Cc1ccccc1)C(N)=O (X5-RLIF-NH2); < 3.74
Cc1nc(C(=O)N[C@@H](CCCNC(=N)N)C(=O)N[C@@H](CC(C)C)C(=O)NCc2cc(Oc3cccc(F)c3)ccn2)nn1-c1ccc(Cl)cc1; < 3.70
CC[C@H](C)[C@H](NC(=O)[C@H](CC(C)C)NC(=O)[C@H](CCCNC(=N)N)NC(=O)c1c[nH]c(-c2cccc(F)c2)n1)C(=O)N[C@@H](Cc1ccccc1)C(N)=O (X13-RLIF-NH2); 4.16
Cc1nc(C(=O)N[C@@H](CCCNC(=N)N)C(=O)N[C@@H](CC(C)C)C(=O)NCc2cccc(Oc3cc(Cl)cc(Cl)c3)c2)nn1-c1cc(Cl)cc(Cl)c1; 3.92
CC[C@H](C)[C@H](NC(=O)[C@H](CC(C)C)NC(=O)[C@H](CCCNC(=N)N)NC(=O)c1cc(C)n(-c2cccc(OC)c2)n1)C(=O)N[C@@H](Cc1ccccc1)C(N)=O (X6-RLIF-NH2); < 4.00
CC[C@H](C)[C@H](NC(=O)[C@H](CC(C)C)NC(=O)[C@H](CCCNC(=N)N)NC(=O)c1ccc(-c2cccc(Cl)c2)o1)C(=O)N[C@@H](Cc1ccccc1)C(N)=O (X4-RLIF-NH2); < 3.74
Cc1nc(C(=O)N[C@@H](CCCNC(=N)N)C(=O)N[C@@H](CC(C)C)C(=O)NCc2cccc(Oc3ccccc3)c2)nn1-c1ccc(Cl)cc1; < 3.70
CC[C@H](C)[C@H](NC(=O)[C@H](CC(C)C)NC(=O)[C@H](CCCNC(=N)N)NC(=O)c1ccn(-c2cc(Cl)cc(Cl)c2)c1)C(=O)N[C@@H](Cc1ccccc1)C(N)=O (X9-RLIF-NH2); < 3.74
CC[C@H](C)[C@H](NC(=O)[C@H](CC(C)C)NC(=O)[C@H](CCCNC(=N)N)NC(=O)c1ccc(-c2cc(Cl)cc(Cl)c2)o1)C(=O)N[C@@H](Cc1ccccc1)C(N)=O (X18-RLIF-NH2); < 3.74
CC[C@H](C)[C@H](NC(=O)[C@H](CC(C)C)NC(=O)[C@H](CCCNC(=N)N)NC(=O)c1ccn(-c2ccc(Cl)cc2)c1)C(=O)N[C@@H](Cc1ccccc1)C(N)=O (X15-RLIF-NH2); < 3.74
CC[C@H](C)[C@H](NC(=O)[C@H](CC(C)C)NC(=O)[C@H](CCCNC(=N)N)NC(=O)c1cc(C)n(-c2cccc(F)c2)n1)C(=O)N[C@@H](Cc1ccccc1)C(N)=O (X7-RLIF-NH2); 4.18
